# target.system: COX-1 (Ovis aries, UniProt P05979)
# Sequence (P05979 25-600): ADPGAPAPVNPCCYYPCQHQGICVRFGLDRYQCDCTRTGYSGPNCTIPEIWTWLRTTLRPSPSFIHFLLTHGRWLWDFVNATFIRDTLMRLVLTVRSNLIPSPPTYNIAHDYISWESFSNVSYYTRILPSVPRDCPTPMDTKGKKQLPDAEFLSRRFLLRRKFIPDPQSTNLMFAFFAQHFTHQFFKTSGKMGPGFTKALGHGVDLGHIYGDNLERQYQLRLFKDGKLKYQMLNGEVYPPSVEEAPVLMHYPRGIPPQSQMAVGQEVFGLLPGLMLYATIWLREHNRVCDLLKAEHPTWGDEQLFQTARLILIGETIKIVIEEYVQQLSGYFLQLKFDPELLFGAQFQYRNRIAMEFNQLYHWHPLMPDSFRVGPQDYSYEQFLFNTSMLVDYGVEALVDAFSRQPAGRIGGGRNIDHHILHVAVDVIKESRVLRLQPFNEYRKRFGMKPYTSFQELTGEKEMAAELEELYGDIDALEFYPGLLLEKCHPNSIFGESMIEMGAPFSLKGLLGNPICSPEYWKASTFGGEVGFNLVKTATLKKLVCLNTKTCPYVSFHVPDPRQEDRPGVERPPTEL
observation.type: pIC50
Please note pIC50 is a logarithmic value: minus log10 of concentration in mol/L. Answer with that number alone.

// known answers, use as guide
INSERT INTO results (compound, target_system, observation_type, result) VALUES
  ('CC(C)[C@H](NC(=O)[C@@H](N)Cn1ccc(=O)c(O)c1)C(=O)O [Mi-L-Val]', 'COX-1 (Ovis aries, UniProt P05979)', 'pIC50', 4.61),
  ('N[C@@H](Cn1ccc(=O)c(O)c1)C(=O)N[C@H](Cc1c[nH]c2ccccc12)C(=O)O [Mi-D-Trp]', 'COX-1 (Ovis aries, UniProt P05979)', 'pIC50', 4.58),
  ('N[C@@H](Cn1ccc(=O)c(O)c1)C(=O)N1CCC[C@H]1C(=O)O [Mi-L-Pro]', 'COX-1 (Ovis aries, UniProt P05979)', 'pIC50', 4.75);

Q: Which pIC50 is listed for N[C@@H](Cn1ccc(=O)c(O)c1)C(=O)N1CCC[C@@H]1C(=O)O [Mi-D-Pro] ?
Ans: 4.68

Q: # pIC50 lookup, item N[C@@H](Cn1ccc(=O)c(O)c1)C(=O)N[C@@H](Cc1c[nH]c2ccccc12)C(=O)O [Mi-L-Trp]
Ans: 4.69

Q: For the compound C[C@@H](NC(=O)[C@@H](N)Cn1ccc(=O)c(O)c1)C(=O)O [Mi-D-Ala] , what pIC50 is on record?
Ans: 4.72

====

Collected Ki values appear next to each entry.
# target.system: mushroom tyrosinase
# protocol.details: Kinetic analysis of tyrosinase inhibition (Lineweaver-Burk plots)
# Type: biochemical
# measurement.context: plot of Km/Vmax versus inhibitor concentration, substrate L-tyrosine; read-out: Inhibition Constant (Ki)
Kindly provide the numeric value in µM only, without the unit symbol.

Some solved cases for reference:
INSERT INTO results (compound, observation_type, result) VALUES
  ('CC(C)[C@@H](NC(=O)[C@@H](N)Cn1ccc(=O)c(O)c1)C(=O)O [Mi-D-Val]', 'Ki', 20),
  ('N[C@@H](Cn1ccc(=O)c(O)c1)C(=O)N[C@H](Cc1c[nH]c2ccccc12)C(=O)O [Mi-D-Trp]', 'Ki', 80);

Q: GET /values?readout=Ki&item= N[C@@H](Cn1ccc(=O)c(O)c1)C(=O)N1CCC[C@H]1C(=O)O [Mi-L-Pro]
Ans: 50

Q: Quick one: Ki of CC(C)[C@H](NC(=O)[C@@H](N)Cn1ccc(=O)c(O)c1)C(=O)O [Mi-L-Val] ?
Ans: 30

These measurements were taken from paper PMC6332029.
